- measured-target: Cytochrome P450 11B1, mitochondrial (Homo sapiens, UniProt P15538)
- Sequence (P15538 whole entry): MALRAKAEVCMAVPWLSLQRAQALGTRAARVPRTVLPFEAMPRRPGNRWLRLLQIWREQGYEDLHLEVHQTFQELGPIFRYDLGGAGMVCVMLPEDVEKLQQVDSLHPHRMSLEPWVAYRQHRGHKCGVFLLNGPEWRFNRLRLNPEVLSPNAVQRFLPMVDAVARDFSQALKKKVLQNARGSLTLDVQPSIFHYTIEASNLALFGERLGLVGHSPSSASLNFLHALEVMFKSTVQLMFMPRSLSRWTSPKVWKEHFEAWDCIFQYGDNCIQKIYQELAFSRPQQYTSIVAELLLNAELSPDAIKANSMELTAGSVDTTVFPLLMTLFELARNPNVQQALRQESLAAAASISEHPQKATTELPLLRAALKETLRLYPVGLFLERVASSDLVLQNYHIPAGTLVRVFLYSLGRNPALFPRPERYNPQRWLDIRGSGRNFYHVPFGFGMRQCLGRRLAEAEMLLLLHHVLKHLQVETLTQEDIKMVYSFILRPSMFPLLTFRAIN
- protocol-description: Inhibition of recombinant CYP11B1 (unknown origin) expressed in human AD293 cells using 11-deoxycortisol as substrate pretreated for 60 mins followed by substrate addition and measured after 12 hrs by LC/MS analysis
pIC50: −log10 of the molar value.
value-type: pIC50

Some entries whose results are on file:
smiles-code | measured-target | pIC50
N=C(N)N1CCN(c2ccc(/C=C/c3cc(Cl)cc(-c4ccncc4)c3)cc2)CC1 | Cytochrome P450 11B1, mitochondrial (Homo sapiens, UniProt P15538) | 5.00
CS(=O)(=O)N1CCN(c2ccc(/C=C/c3cc(Cl)cc(Cn4ccnc4)c3)cc2)CC1 | Cytochrome P450 11B1, mitochondrial (Homo sapiens, UniProt P15538) | 7.62
CC(=O)N1CCN(c2ccc(CCc3cc(F)cc(-c4ccncc4)c3)cc2)CC1 | Cytochrome P450 11B1, mitochondrial (Homo sapiens, UniProt P15538) | 8.85

(1) O=S(=O)(C1CC1)N1CCN(c2ccc(/C=C/c3cc(Cl)cc(Cn4ccnc4)c3)cc2)CC1
(2) O=[N+]([O-])c1cc(S(=O)(=O)N2CCN(c3ccc(/C=C/c4cc(Cl)cc(Cn5ccnc5)c4)cc3)CC2)ccc1Cl
Q) Between these two entries, 1 and 2 , state which has the higher pIC50. Record your answer as the label of the chosen record.
A) 1

Attribution: ChEMBL document CHEMBL4257083
